Biological target: UniProt:Q96EB6
Sequence (whole entry): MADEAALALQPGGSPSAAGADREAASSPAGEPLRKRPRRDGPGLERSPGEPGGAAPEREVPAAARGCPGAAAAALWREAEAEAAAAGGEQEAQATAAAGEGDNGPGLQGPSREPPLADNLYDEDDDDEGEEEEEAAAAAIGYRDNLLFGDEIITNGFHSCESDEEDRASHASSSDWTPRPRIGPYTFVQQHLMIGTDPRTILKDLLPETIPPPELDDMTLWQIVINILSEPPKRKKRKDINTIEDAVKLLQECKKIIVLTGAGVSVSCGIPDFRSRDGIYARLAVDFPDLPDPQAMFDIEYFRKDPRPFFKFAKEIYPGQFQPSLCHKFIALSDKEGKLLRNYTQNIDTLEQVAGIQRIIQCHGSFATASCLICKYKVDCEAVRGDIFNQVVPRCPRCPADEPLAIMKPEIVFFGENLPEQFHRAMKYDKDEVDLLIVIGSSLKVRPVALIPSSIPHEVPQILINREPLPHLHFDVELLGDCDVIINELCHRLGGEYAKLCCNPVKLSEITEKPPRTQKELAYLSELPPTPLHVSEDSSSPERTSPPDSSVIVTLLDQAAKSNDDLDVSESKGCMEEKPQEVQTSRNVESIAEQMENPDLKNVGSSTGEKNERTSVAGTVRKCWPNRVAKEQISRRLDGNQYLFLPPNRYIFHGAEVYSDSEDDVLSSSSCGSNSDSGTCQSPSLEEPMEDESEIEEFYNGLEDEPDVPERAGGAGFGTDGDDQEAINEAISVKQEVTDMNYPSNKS
Experiment: Inhibition of human SIRT1 expressed in Escherichia coli BL21 at 250 uM using H3K9AcWW as substrate preincubated for 15 mins followed by substrate addition measured after 1 hr by HPLC analysis relative to control
Residues, ends and D or L forms follow the SMILES beside them. *: point of attachment. X13 = CCCCCCNC(=O)CCC*; X5 = NC(=O)CCC*
Give measured inhibition for each item. Keep answers brief.
Please answer using a numeric value trailed by its unit.

Measured inhibition of C[C@H](NC(=O)[C@@H](NC(=O)[C@H](CCC(N)=O)NC(=O)[C@@H](N)CCCCN)[C@@H](C)O)C(=O)N[C@@H](CCCNC(=N)N)C(=O)N[C@@H](CSCCCC(N)=O)C(=O)N[C@@H](CO)C(=O)N[C@H](C(=O)NCC(=O)NCC(=O)N[C@@H](CCCCN)C(=O)O)[C@@H](C)O (H-KQTARC(X5)STGGK-OH) : 40%

Measured inhibition of CCCCCCNC(=O)CCCSC[C@H](NC(=O)[C@H](CCCNC(=N)N)NC(=O)[C@H](C)NC(=O)[C@@H](NC(=O)[C@H](CCC(N)=O)NC(=O)[C@@H](N)CCCCN)[C@@H](C)O)C(=O)N[C@@H](CO)C(=O)N[C@H](C(=O)NCC(=O)NCC(=O)N[C@@H](CCCCN)C(=O)O)[C@@H](C)O (H-KQTARC(X13)STGGK-OH) : 36%
